# Test system: Pseudomonas aeruginosa
# assay details: Potentiation of aztreonam-induced antibacterial activity against carbapenem-resistant Pseudomonas aeruginosa 260-97103 clinical isolate assessed as aztreonam MIC at 8 uM by checkerboard assay (reference value: 64 ug/ml)
# Assay type: functional
metric: MIC (mg/L)

{"columns": ["input smiles", "measure unit", "endpoint result"],
 "data": [
  ["N=C(N)NC[C@H]1O[C@H](O[C@H]2[C@H](OCCCCCCCCCCCCN3CCN(c4cc5c(cc4F)c(=O)c(C(=O)O)cn5C4CC4)CC3)[C@@H](O[C@H]3O[C@H](CO)[C@@H](O)[C@H](NC(=N)N)[C@H]3O)[C@H](NC(=N)N)C[C@@H]2NC(=N)N)[C@H](NC(=N)N)C[C@@H]1O.O=C(O)C(F)(F)F.O=C(O)C(F)(F)F.O=C(O)C(F)(F)F.O=C(O)C(F)(F)F.O=C(O)C(F)(F)F.O=C(O)C(F)(F)F", "mg/L", 8],
  ["NC[C@H]1O[C@H](O[C@H]2[C@H](OCCCCCCCCN3CCCNCCNCCCNCC3)[C@@H](O)[C@H](N)C[C@@H]2N)[C@H](N)C[C@@H]1O.O=C(O)C(F)(F)F.O=C(O)C(F)(F)F.O=C(O)C(F)(F)F.O=C(O)C(F)(F)F.O=C(O)C(F)(F)F.O=C(O)C(F)(F)F.O=C(O)C(F)(F)F.O=C(O)C(F)(F)F", "mg/L", 8],
  ["NC[C@H]1O[C@H](O[C@H]2[C@H](OCCCCc3cn(CCCCO[C@@H]4[C@@H](O)[C@H](N)C[C@H](N)[C@H]4O[C@H]4O[C@H](CN)[C@@H](O)C[C@H]4N)nn3)[C@@H](O)[C@H](N)C[C@@H]2N)[C@H](N)C[C@@H]1O.O=C(O)C(F)(F)F.O=C(O)C(F)(F)F.O=C(O)C(F)(F)F.O=C(O)C(F)(F)F.O=C(O)C(F)(F)F.O=C(O)C(F)(F)F.O=C(O)C(F)(F)F.O=C(O)C(F)(F)F", "mg/L", 16],
  ["Cl.Cl.Cl.Cl.Cl.Cl.NC[C@H]1O[C@H](O[C@H]2[C@H](OCCCCCCCCCCCCN3CCN(c4cc5c(cc4F)c(=O)c(C(=O)O)cn5C4CC4)CC3)[C@@H](O[C@H]3O[C@H](CO)[C@@H](O)[C@H](N)[C@H]3O)[C@H](N)C[C@@H]2N)[C@H](N)C[C@@H]1O", "mg/L", 4],
  ["Cl.Cl.Cl.Cl.Cl.NC[C@H]1O[C@H](O[C@H]2[C@H](OCCCCCCCCCCCCN3CCN(c4cc5c(cc4F)c(=O)c(C(=O)O)cn5C4CC4)CC3)[C@@H](O)[C@H](N)C[C@@H]2N)[C@H](N)C[C@@H]1O", "mg/L", 0.25]
]}

* * *

# Tested on: Pseudomonas aeruginosa
# assay details: Potentiation of imipenem-induced antibacterial activity against carbapenem-resistant Pseudomonas aeruginosa 88949 clinical isolate assessed as imipenem MIC at 8 uM by checkerboard assay (reference value: 64 ug/ml)
# Assay type: functional
Parameter: MIC. Scope: all listed entries.
metric: MIC (µg/mL)

{"columns": ["input smiles", "metric", "endpoint result"],
 "data": [
  ["NC[C@H]1O[C@H](O[C@H]2[C@H](OCCCCCCCCN3CCCNCCNCCCNCC3)[C@@H](O)[C@H](N)C[C@@H]2N)[C@H](N)C[C@@H]1O.O=C(O)C(F)(F)F.O=C(O)C(F)(F)F.O=C(O)C(F)(F)F.O=C(O)C(F)(F)F.O=C(O)C(F)(F)F.O=C(O)C(F)(F)F.O=C(O)C(F)(F)F.O=C(O)C(F)(F)F", "MIC", 64],
  ["Cl.Cl.Cl.Cl.Cl.Cl.NC[C@H]1O[C@H](O[C@H]2[C@H](OCCCCCCCCCCCCN3CCN(c4cc5c(cc4F)c(=O)c(C(=O)O)cn5C4CC4)CC3)[C@@H](O[C@H]3O[C@H](CO)[C@@H](O)[C@H](N)[C@H]3O)[C@H](N)C[C@@H]2N)[C@H](N)C[C@@H]1O", "MIC", 8],
  ["N=C(N)NC[C@H]1O[C@H](O[C@H]2[C@H](OCCCCCCCCCCCCN3CCN(c4cc5c(cc4F)c(=O)c(C(=O)O)cn5C4CC4)CC3)[C@@H](O[C@H]3O[C@H](CO)[C@@H](O)[C@H](NC(=N)N)[C@H]3O)[C@H](NC(=N)N)C[C@@H]2NC(=N)N)[C@H](NC(=N)N)C[C@@H]1O.O=C(O)C(F)(F)F.O=C(O)C(F)(F)F.O=C(O)C(F)(F)F.O=C(O)C(F)(F)F.O=C(O)C(F)(F)F.O=C(O)C(F)(F)F", "MIC", 64]
]}

* * *

# Test system: Pseudomonas aeruginosa
# assay details: Potentiation of imipenem-induced antibacterial activity against carbapenem-resistant Pseudomonas aeruginosa 108590 clinical isolate assessed as imipenem MIC at 8 uM by checkerboard assay (reference value: 16 ug/ml)
# Assay type: functional

{"columns": ["input smiles", "system name", "MIC"],
 "data": [
  ["Cl.Cl.Cl.Cl.Cl.Cl.NC[C@H]1O[C@H](O[C@H]2[C@H](OCCCCCCCCCCCCN3CCN(c4cc5c(cc4F)c(=O)c(C(=O)O)cn5C4CC4)CC3)[C@@H](O[C@H]3O[C@H](CO)[C@@H](O)[C@H](N)[C@H]3O)[C@H](N)C[C@@H]2N)[C@H](N)C[C@@H]1O", "Pseudomonas aeruginosa", "0.25 µg/mL"],
  ["Cl.Cl.Cl.Cl.Cl.NC[C@H]1O[C@H](O[C@H]2[C@H](OCCCCCCCCCCCCN3CCN(c4cc5c(cc4F)c(=O)c(C(=O)O)cn5C4CC4)CC3)[C@@H](O)[C@H](N)C[C@@H]2N)[C@H](N)C[C@@H]1O", "Pseudomonas aeruginosa", "0.5 µg/mL"],
  ["N=C(N)NC[C@H]1O[C@H](O[C@H]2[C@H](OCCCCCCCCCCCCN3CCN(c4cc5c(cc4F)c(=O)c(C(=O)O)cn5C4CC4)CC3)[C@@H](O[C@H]3O[C@H](CO)[C@@H](O)[C@H](NC(=N)N)[C@H]3O)[C@H](NC(=N)N)C[C@@H]2NC(=N)N)[C@H](NC(=N)N)C[C@@H]1O.O=C(O)C(F)(F)F.O=C(O)C(F)(F)F.O=C(O)C(F)(F)F.O=C(O)C(F)(F)F.O=C(O)C(F)(F)F.O=C(O)C(F)(F)F", "Pseudomonas aeruginosa", "4 µg/mL"]
]}

* * *

# Test system: Pseudomonas aeruginosa
# assay details: Potentiation of ceftazidime-induced antibacterial activity against carbapenem-resistant Pseudomonas aeruginosa 109084 clinical isolate assessed as fold reduction in ceftazidime MIC at 8 uM in presence of beta-lactamase inhibitor, avi-bactam
# Format: functional

{"columns": ["input smiles", "fold change (FC)"],
 "data": [
  ["NC[C@H]1O[C@H](O[C@H]2[C@H](OCCCCCCCCN3CCCNCCNCCCNCC3)[C@@H](O[C@H]3O[C@H](CO)[C@@H](O)[C@H](N)[C@H]3O)[C@H](N)C[C@@H]2N)[C@H](N)C[C@@H]1O.O=C(O)C(F)(F)F.O=C(O)C(F)(F)F.O=C(O)C(F)(F)F.O=C(O)C(F)(F)F.O=C(O)C(F)(F)F.O=C(O)C(F)(F)F.O=C(O)C(F)(F)F.O=C(O)C(F)(F)F.O=C(O)C(F)(F)F", 16]
]}

* * *

# Tested on: Pseudomonas aeruginosa
# assay details: Potentiation of imipenem-induced antibacterial activity against carbapenem and colistin-resistant Pseudomonas aeruginosa 91433 clinical isolate assessed as imipenem MIC at 8 uM by checkerboard assay (reference value: 8 ug/ml)
# Type: functional
Below is a list of entries, each paired with its recorded MIC value.
metric: MIC (µg/mL)

{"columns": ["input smiles", "endpoint result"],
 "data": [
  ["Cl.Cl.Cl.Cl.Cl.Cl.NC[C@H]1O[C@H](O[C@H]2[C@H](OCCCCCCCCCCCCN3CCN(c4cc5c(cc4F)c(=O)c(C(=O)O)cn5C4CC4)CC3)[C@@H](O[C@H]3O[C@H](CO)[C@@H](O)[C@H](N)[C@H]3O)[C@H](N)C[C@@H]2N)[C@H](N)C[C@@H]1O", 2],
  ["NC[C@H]1O[C@H](O[C@H]2[C@H](OCCCCCCCCN3CCCNCCNCCCNCC3)[C@@H](O)[C@H](N)C[C@@H]2N)[C@H](N)C[C@@H]1O.O=C(O)C(F)(F)F.O=C(O)C(F)(F)F.O=C(O)C(F)(F)F.O=C(O)C(F)(F)F.O=C(O)C(F)(F)F.O=C(O)C(F)(F)F.O=C(O)C(F)(F)F.O=C(O)C(F)(F)F", 4],
  ["NC[C@H]1O[C@H](O[C@H]2[C@H](OCCCCc3cn(CCCCO[C@@H]4[C@@H](O)[C@H](N)C[C@H](N)[C@H]4O[C@H]4O[C@H](CN)[C@@H](O)C[C@H]4N)nn3)[C@@H](O)[C@H](N)C[C@@H]2N)[C@H](N)C[C@@H]1O.O=C(O)C(F)(F)F.O=C(O)C(F)(F)F.O=C(O)C(F)(F)F.O=C(O)C(F)(F)F.O=C(O)C(F)(F)F.O=C(O)C(F)(F)F.O=C(O)C(F)(F)F.O=C(O)C(F)(F)F", 8]
]}
